Hello, the source for this data is patent US20260152501A1, in case you need it.

# Tested on: H82 cells
# METHOD: Cell proliferation experiment, H82 cells
# Type: cell-based
# ASSAY CONDITIONS: Homo sapiens, NCI-H82, cultured for 72 hours, Cell Titer-Glo, read-out: Cell antiproliferation data H82
pIC50: −log10 of the molar value.
REPORTED PROPERTY: pIC50

Prompt line: Which pIC50 value belongs to CC(C)n1cnc2c(NCc3ccc(-c4ccccc4)cc3)nc(N3CCC(N)CC3)nc21 ?
Response line: 6.52 to 7.00

Prompt line: Which pIC50 value belongs to CC(C)n1cnc2c(NCc3ccc(-c4ccccc4)cc3)nc(N3CCCCC3)nc21 ?
Response line: < 6.52

Prompt line: Which pIC50 value belongs to CC(C)n1cnc2c(NCc3ccc(-c4ccccc4)cc3)nc(N[C@@H]3CCCNC3)nc21 ?
Response line: ≥ 7.00

Prompt line: Which pIC50 value belongs to CC[C@H](CO)Nc1nc(NCc2ccc(-c3ccccc3)cc2)c2ncn(C(C)C)c2n1 ?
Response line: 6.52 to 7.00

====

# System: N87 cells
# METHOD: Cell proliferation experiment, N87 cells
# Type: cell-based
# ASSAY CONDITIONS: Cell Titer-Glo, read-out: Cell antiproliferation data N87
REPORTED PROPERTY: IC50

Prompt line: Which IC50 value belongs to CCn1cnc2c(NCc3ccc(-c4cccc(CO)n4)cc3)nc(N3CCNCC3)nc21 ?
Response line: ≤ 100 nM

Prompt line: Which IC50 value belongs to CC(C)n1cnc2c(NCc3ccc(-c4ccccc4)cc3)nc(N[C@H]3CCCNC3)nc21 ?
Response line: ≤ 100 nM

Prompt line: Which IC50 value belongs to CC(C)n1cnc2c(NCc3ccc(-c4ccccc4)cc3)nc(N3CCC[C@@H](N)C3)nc21 ?
Response line: ≤ 100 nM
